Experiment: Cytotoxicity against human HCT116/VM46 cells assessed as reduction in cell viability after 72 hrs by phosphatase assay
Assay type: cell-based
Conditions: HCT-116/VM46, 72 h
pIC50: −log10 of the molar value.
// reported pIC50 per item
MEASURED_ENDPOINT: pIC50

>>> observed_value("CC[C@]1(NC(=O)c2ccc3cccnc3c2)C[C@H]2CN(CCc3c([nH]c4ccccc34)[C@@](C(=O)OC)(c3cc4c(cc3OC)N(C)[C@H]3[C@@](O)(C(=O)OC)[C@H](OC(C)=O)[C@]5(CC)C=CCN6CC[C@]43[C@@H]65)C2)C1")
8.09
>>> observed_value("CC[C@]1(NC(=O)c2cccc(N3CCOCC3)c2)C[C@H]2CN(CCc3c([nH]c4ccccc34)[C@@](C(=O)OC)(c3cc4c(cc3OC)N(C)[C@H]3[C@@](O)(C(=O)OC)[C@H](OC(C)=O)[C@]5(CC)C=CCN6CC[C@]43[C@@H]65)C2)C1")
7.52
>>> observed_value("CC[C@]1(NC(=O)c2cccc(SC)c2)C[C@H]2CN(CCc3c([nH]c4ccccc34)[C@@](C(=O)OC)(c3cc4c(cc3OC)N(C)[C@H]3[C@@](O)(C(=O)OC)[C@H](OC(C)=O)[C@]5(CC)C=CCN6CC[C@]43[C@@H]65)C2)C1")
7.70
>>> observed_value("CC[C@]1(NC(=O)c2ccc(C(C)(C)C)cc2)C[C@H]2CN(CCc3c([nH]c4ccccc34)[C@@](C(=O)OC)(c3cc4c(cc3OC)N(C)[C@H]3[C@@](O)(C(=O)OC)[C@H](OC(C)=O)[C@]5(CC)C=CCN6CC[C@]43[C@@H]65)C2)C1")
7.26
>>> observed_value("CC[C@]1(NC(=O)c2cccc(Cl)c2)C[C@H]2CN(CCc3c([nH]c4ccccc34)[C@@](C(=O)OC)(c3cc4c(cc3OC)N(C)[C@H]3[C@@](O)(C(=O)OC)[C@H](OC(C)=O)[C@]5(CC)C=CCN6CC[C@]43[C@@H]65)C2)C1")
7.70
>>> observed_value("CC[C@]1(NC(=O)c2cccc(C(F)(F)F)c2)C[C@H]2CN(CCc3c([nH]c4ccccc34)[C@@](C(=O)OC)(c3cc4c(cc3OC)N(C)[C@H]3[C@@](O)(C(=O)OC)[C@H](OC(C)=O)[C@]5(CC)C=CCN6CC[C@]43[C@@H]65)C2)C1")
7.40
>>> observed_value("CC[C@]1(NC(=O)c2ccc(OC(F)(F)F)cc2)C[C@H]2CN(CCc3c([nH]c4ccccc34)[C@@](C(=O)OC)(c3cc4c(cc3OC)N(C)[C@H]3[C@@](O)(C(=O)OC)[C@H](OC(C)=O)[C@]5(CC)C=CCN6CC[C@]43[C@@H]65)C2)C1")
8.08
